target: human liver GK (Homo sapiens, UniProt P35557); construct: GST (glutathione S-transferase) (N); experiment: GK activation test; conditions: test compound concentration needed to activate 50% of maximum activation ability; 4 mM 14C-labeled glucose, 2 mM ATP, room temperature, 20 minutes
pEC50: −log10 of the molar value.
observation_type: pEC50

A selection of reference data follows.
Reported human liver GK (Homo sapiens, UniProt P35557) pEC50 for item CSc1ccc(C(C[C@H]2CCC(=O)C2)c2ccc(C)c(=O)[nH]2)cc1 (stereo partly shown) was 5.52 to 6.30

Reported human liver GK (Homo sapiens, UniProt P35557) pEC50 for item CCc1ccc(C(C[C@H]2CCC(=O)N2)c2ccc(C3CC3)c(=O)[nH]2)cc1Cl (single isomer, unassigned) [Example 4-336] was 6.30 to 8.00

Could you report pEC50 for every entry in the following list?
1. CC(C)(C)c1ccc(C(C[C@H]2CCC(=O)N2)c2ccc(C(F)(F)F)c(=O)[nH]2)cc1 (single isomer, unassigned) [Example 4-315]
2. CC(C)c1ccc(C(CC2CCCC2)c2ccc(S(C)(=O)=O)cc2)[nH]c1=O (stereo not shown)

1. 5.00 to 5.52
2. 5.52 to 6.30

* * *

Would you kindly list pEC50 for each of these molecules?
molecular target: human liver GK (Homo sapiens, UniProt P35557); construct: GST (glutathione S-transferase) (N); assay: GK activation test; settings: test compound concentration needed to activate 50% of maximum activation ability; 4 mM 14C-labeled glucose, 2 mM ATP, room temperature, 20 minutes
pEC50: −log10 of the molar value.

Measured pEC50, CCOc1ccc(/C(=C\C2CCOCC2)c2ccc(C3CC3)c(=O)[nH]2)cc1 [Example 1-52] : 5.52 to 6.30

Measured pEC50, CC(C)(C)c1ccc(/C(=C\CN2CCCC2=O)c2ccc(Cl)c(=O)[nH]2)cc1 [Example 6-3] : 6.30 to 8.00

Measured pEC50, Cc1ccc(/C(=C/C2CCOCC2)c2ccc(S(C)(=O)=O)c(Cl)c2)[nH]c1=O [Example 1-56] : 5.52 to 6.30

Measured pEC50, O=C1CC[C@H](/C=C(\c2ccc(OC3CCOCC3)c(Cl)c2)c2ccc(C3CC3)c(=O)[nH]2)N1 [Example 4-143] : 6.30 to 8.00

Measured pEC50, CCS(=O)(=O)c1ccc(/C(=C\[C@H]2CCC(=O)N2)c2ccc(Cl)c(=O)[nH]2)cc1Cl [Example 4-58] : 5.52 to 6.30

Measured pEC50, O=C1CC[C@H](/C=C(\c2ccc(CC(F)(F)F)cc2)c2ccc(C3CC3)c(=O)[nH]2)N1 [Example 4-272] : 6.30 to 8.00

Could you report pEC50 for every entry in the following list?
1. COc1cc(/C(=C\[C@H]2CCC(=O)N2)c2ccc(C3CC3)c(=O)[nH]2)ccc1Cl [Example 4-124]
2. O=C1CC[C@H](CC(c2ccc(OC(F)F)cc2)c2ccc(C3CC3)c(=O)[nH]2)N1 (single isomer, unassigned) [Example 4-230]
3. CC(C)(C)c1ccc(C(C[C@H]2CCC(=O)N2)c2ccc(C3CC3)c(=O)[nH]2)cc1 (stereo partly drawn) [Example 4-358]
4. Cc1ccc(/C(=C\[C@H]2CCC(=O)N2)c2ccc(Cl)c(=O)[nH]2)cc1C [Example 4-23]
5. CSc1ccc(/C(=C\C2CCCC2)c2ccc(C)c(=O)[nH]2)cc1 [Example 1-7]
6. CCCCCc1ccc(/C(=C/[C@H]2CCC(=O)N2)c2ccc(C(C)(C)C)cc2)[nH]c1=O [Example 4-193]

1. 6.30 to 8.00
2. 5.00 to 5.52
3. 6.30 to 8.00
4. 5.52 to 6.30
5. 6.30 to 8.00
6. 6.30 to 8.00

Could you report pEC50 for every entry in the following list?
1. CCc1ccc(/C(=C/[C@H]2CCC(=O)C2)c2ccc(SCCCN(CC)CC)c(Cl)c2)[nH]c1=O [Example 1-77]
2. CSc1ccc(/C(=C\[C@H]2CCC(=O)C2)c2ccc(C(C)C)c(=O)[nH]2)cc1 [Example 1-64]
3. CC(C)c1ccc(/C(=C\[C@H]2CCC(=O)N2)c2ccc(Cl)c(=O)[nH]2)cc1 [Example 4-15]
4. CC(C)(C)c1ccc(/C(=C\[C@H]2CCC(=O)N2)c2ccc(Cl)c(=O)[nH]2)cc1 [Example 4-18]

["6.30 to 8.00", "6.30 to 8.00", "6.30 to 8.00", "6.30 to 8.00"]

Could you report pEC50 for every entry in the following list?
1. CC(C)(C)c1ccc(C(NC2CCCC2)c2ccc(Cl)c(=O)[nH]2)cc1 (stereo not drawn) [Example 7-5]
2. CC(C)Oc1ccc(C(C[C@H]2CCC(=O)N2)c2ccc(C3CC3)c(=O)[nH]2)cc1 (single isomer, unassigned) [Example 4-348]
3. N#Cc1cc(/C(=C\[C@H]2CCC(=O)N2)c2ccc(C3CC3)c(=O)[nH]2)ccc1F [Example 4-288]

5.00 to 5.52
5.52 to 6.30
5.00 to 5.52

* * *

Would you kindly list EC50 for each of these molecules?
Target: human liver GK (Homo sapiens)
Construct: GST (glutathione S-transferase) (N)
Sequence (P35557 1-466 isoform P35557-2): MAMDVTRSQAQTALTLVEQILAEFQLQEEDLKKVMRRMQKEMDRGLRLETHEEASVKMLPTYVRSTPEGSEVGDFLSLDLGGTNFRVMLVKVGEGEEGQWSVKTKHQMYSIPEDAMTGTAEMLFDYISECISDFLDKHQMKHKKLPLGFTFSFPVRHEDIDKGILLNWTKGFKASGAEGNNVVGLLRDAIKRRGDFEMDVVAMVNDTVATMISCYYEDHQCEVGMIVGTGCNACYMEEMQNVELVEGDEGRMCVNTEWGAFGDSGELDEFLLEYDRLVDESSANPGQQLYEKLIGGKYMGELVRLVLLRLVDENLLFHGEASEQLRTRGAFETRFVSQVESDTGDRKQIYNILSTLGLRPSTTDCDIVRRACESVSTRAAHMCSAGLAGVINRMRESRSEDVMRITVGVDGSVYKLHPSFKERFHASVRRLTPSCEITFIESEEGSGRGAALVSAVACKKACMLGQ
Assay: GK activation test
Conditions: test compound concentration needed to activate 50% of maximum activation ability; 4 mM 14C-labeled glucose, 2 mM ATP, room temperature, 20 minutes

Reported human liver GK (Homo sapiens) EC50 for item CC(C)(CO)COc1ccc(/C(=C/[C@H]2CCC(=O)N2)c2ccc(C(F)(F)F)cc2)[nH]c1=O was 3000 to 10000 nM

Reported human liver GK (Homo sapiens) EC50 for item CCOc1ccc(C(C[C@H]2CCC(=O)N2)c2ccc(Cl)c(=O)[nH]2)cc1 (single isomer, unassigned) was 3000 to 10000 nM

Reported human liver GK (Homo sapiens) EC50 for item CCCc1ccc(C(CC2CCCC2)c2ccc(S(C)(=O)=O)cc2)[nH]c1=O (centres unmarked) was 500 to 3000 nM

Reported human liver GK (Homo sapiens) EC50 for item CCc1ccc(/C(=C/[C@H]2CCC(=O)N2)c2ccc(C(C)(C)C)cc2)[nH]c1=O was 10 to 500 nM

Reported human liver GK (Homo sapiens) EC50 for item Cc1ccc(C(CC2CCCCC2)c2ccc(S(C)(=O)=O)cc2)[nH]c1=O (centres unmarked) was 500 to 3000 nM

Could you report EC50 for every entry in the following list?
1. NC(=O)Nc1ccc(/C(=C\C2CCCC2)c2ccc(Cl)c(=O)[nH]2)cc1
2. CS(=O)(=O)c1ccc(/C(=C\C2CCCC2)c2ccc(C(F)(F)F)c(=O)[nH]2)cc1
3. O=C1CC[C@H](/C=C(/c2ccc(C3CC3)c(=O)[nH]2)c2ccc(F)cc2O)N1

500 to 3000 nM
500 to 3000 nM
10 to 500 nM

* * *

molecular target: human liver GK (Homo sapiens); construct: GST (glutathione S-transferase) (N); assay: GK activation test; conditions: test compound concentration needed to activate 50% of maximum activation ability; 4 mM 14C-labeled glucose, 2 mM ATP, room temperature, 20 minutes
observation_type: EC50

Reported human liver GK (Homo sapiens) EC50 for item CC(=O)Nc1ccc(/C(=C\C2CCCC2)c2ccc(Cl)c(=O)[nH]2)cc1 was 0.5 to 3 µM

Reported human liver GK (Homo sapiens) EC50 for item O=C1CC[C@H](CC(c2ccc(S(=O)(=O)C3CC3)c(Cl)c2)c2ccc(C3CC3)c(=O)[nH]2)N1 (single isomer, unassigned) [Example 4-343] was 3 to 10 µM

Reported human liver GK (Homo sapiens) EC50 for item CSc1ccc(/C(=C\CC2CCOC2)c2ccc(C3CC3)c(=O)[nH]2)cc1 (stereo not shown) was 0.5 to 3 µM

Shifting focus to the compound that follows.
Reported human liver GK (Homo sapiens) EC50 for item CCc1ccc(/C(=C/C2CCCC2)c2ccc(S(=O)(=O)CCCO)cc2)[nH]c1=O was 0.01 to 0.5 µM

meta.source: patent US8822503B2
